system: SF-268; assay: NCI tumour cell line growth inhibition, 48 h
The source made the active and inactive calls. Rule as the data show it: active = GI50 up to about 1.1 µM and inactive = higher.
Measured GI50 accompanies every entry in the list below.

Input line: Would you mind telling me what GI50 value was observed for O=C(O)/C=C\C(=O)Nc1ccc2c(c1)C(=O)c1cc(F)ccc1-2 ?
Output line: > 100 µM (inactive)

---

test system: SK-MEL-5; experiment: NCI tumour cell line growth inhibition, 48 h
The source made the active and inactive calls. Cut-off read from the data, not from the text of the source: active = GI50 up to about 1.1 µM and inactive = higher.
experimental.endpoint: GI50

Input line: Would you mind telling me what GI50 value was observed for Clc1ccc(-c2nnc(-c3nsc4ccccc34)o2)cc1 ?
Output line: 31.3 µM (inactive)

Input line: Would you mind telling me what GI50 value was observed for COC(=O)C1CC2C=CC1N(C(=O)OCc1ccccc1)C2 (configuration not stated) ?
Output line: 92 µM (inactive)

Input line: Would you mind telling me what GI50 value was observed for CS[C@]12[C@@H]3C(=O)N(C)C(=O)[C@@H]3[C@](C)(C(=O)N1C)C(=O)N2c1ccccc1 ?
Output line: > 100 µM (inactive)

---

tested on: OVCAR-3; assay: NCI tumour cell line growth inhibition, 48 h
Activity calls are given as the source filed them. Cut-off read from the data, not from the text of the source: active = GI50 up to about 1.1 µM and inactive = higher.
Mark one answer only. Choices: active, inactive

Reference set (8 entries):
CCOC(=O)C1=C(C)N(c2ccc(Cl)cc2)C2(O)C=CC(=O)C3C(=O)N(c4ccccc4)C(=O)C132 (stereo not given): inactive
CCOC(=O)c1cc2cc(Cc3ccc4[nH]c(C(=O)OCC)cc4c3)ccc2[nH]1: inactive
Nc1ccn(CCOC(c2ccccc2)P(=O)(O)O)c(=O)n1 (stereo not given): inactive
NC(=O)C(=CNC(N)=S)C(N)=O: inactive
COC(=O)C1=C(C(=O)OC)N(C(C)C)[C@H]2C(C(=O)OC)=C(C(=O)OC)N(C(C)C)[C@@H]12: inactive
COC(=O)c1c(C)cc(OC)c(C/C=C(\C)CCCc2coc(C=C(C)C)c2)c1OC: inactive
COc1cc(C(=O)NC2CCc3cc(OC)c(OC)c(OC)c3-c3ccc(OC)c(=O)cc32)cc(OC)c1OC (stereo not given): active
O=C1OC2C=CCC1C2 (stereo not given): inactive

Input line: Which result was noted for this compound in the test: CC1C(c2ccc3c(c2)OCO3)c2cc3c(cc2OC1N1CCCC1)OCO3 (stereo not given)
Output line: inactive

Input line: Which result was noted for this compound in the test: CCN(CC)CC(C(=O)Nc1c(C)cccc1C)/C(C)=N/NC(N)=S (stereo not given)
Output line: inactive

Input line: Which result was noted for this compound in the test: CC(C)OP(=O)(OC(C)C)c1nn(-c2ccc([N+](=O)[O-])cc2)c(=N)s1
Output line: inactive

Input line: Which result was noted for this compound in the test: CS(=O)(=O)CC(=O)c1ccccc1
Output line: inactive

---

system: MDA-MB-231; assay: NCI tumour cell line growth inhibition, 48 h
Active and inactive are the calls of the source. Cut-off read from the data, not from the text of the source: active = GI50 up to about 1.1 µM and inactive = higher.
Mark one answer only. Choices: active, inactive

Reference set (5 entries):
CCOC(=O)c1[nH]c(-c2[nH]c(-c3[nH]c(-c4[nH]c(C(=O)OCC)c(C)c4C(=O)OCC)c(C(=O)OCC)c3C)c(C)c2C(=O)OCC)c(C(=O)OCC)c1C: inactive
CCOC1OC(COC(=O)C(C)(C)C)C(O)CC1n1cc(C)c(=O)[nH]c1=O (stereo not drawn): inactive
O=c1cc(-c2ccccc2)c2ccc(O)c(CN(CCCl)CCCl)c2o1: inactive
O=C1Oc2cc3c(c4cccc1c24)O[C@H](c1ccccc1)[C@@H](c1ccccc1)[C@@H]3c1ccc(Cl)cc1: inactive
CC1=NN(C(=O)c2ccccc2O)C(c2ccccc2Cl)C1C(=O)Nc1ccccc1 (stereo not drawn): active

Input line: Which result was noted for this molecule in the test: COC(=O)OC[C@H]1O[C@@H](n2cc(C)c(=O)[nH]c2=O)CC1OC(=O)OC (stereo partly drawn)
Output line: inactive

Input line: Which result was noted for this molecule in the test: OC(CCN1CCCCC1)(c1ccccc1)c1ccccc1 [PRIDINOL]
Output line: inactive

Input line: Which result was noted for this molecule in the test: O=[N+]([O-])c1ccc(C2=NOC(c3ccc(Cl)cc3)N2C23CC4CC(CC(C4)C2)C3)cc1 (stereo not drawn)
Output line: inactive
